Values were extracted from patent US10105357B2.

Readings of viability at 10 µM for the listed molecules
- Tested on: PC3 (p53−) (Prostate Adenocarcinoma)
- experiment_description: Cell viability analysis, prostate cancer PC3
- Assay type: cell-based, human
- test_settings: Homo sapiens, 72 h, drug 10 μM, 72 hours, WST-1, OD450 nm; read-out: cell viability (survival rate), PC3
Structures can show the parent of a compound that is named as a salt.
Write it as a number; the unit % goes unstated.

Observe how each entry below is paired with its result.
{"columns": ["molecule", "recorded_number"],
 "data": [
  ["OC[C@H]1O[C@H](O[C@]2(CCl)O[C@H](CCl)[C@@H](O)[C@@H]2O)[C@H](O)[C@@H](O)[C@H]1Cl [Sucralose]", 78.8],
  ["O=C(O)c1cn(-c2ccc(F)cc2)c2cc(N3CCNCC3)c(F)cc2c1=O [Sarafloxacin HCl]", 80.9],
  ["Nc1ccn(C[C@@H](CO)OCP(=O)(O)O)c(=O)n1 [Cidofovir (Vistide), Cidofovir]", 63.9]
]}

q: Fill in viability at 10 µM for record CC[C@H]1OC(=O)C[C@@H](O)[C@H](C)[C@@H](O[C@@H]2O[C@H](C)[C@@H](O)[C@H](N(C)C)[C@H]2O)[C@@H](CCN2C[C@H](C)C[C@H](C)C2)C[C@@H](C)C(=O)/C=C/C(C)=C/[C@@H]1CO[C@@H]1O[C@H](C)[C@@H](O)[C@@H](OC)[C@H]1OC [Tilmicosin]
a: 81.5

q: Fill in viability at 10 µM for record CC(=O)Nc1ncc([N+](=O)[O-])s1 [Nithiamide]
a: 74.5

q: Fill in viability at 10 µM for record CO/N=C(\C(=O)N[C@@H]1C(=O)N2C(C(=O)OCOC(=O)C(C)(C)C)=C(/C=C\c3scnc3C)CS[C@H]12)c1csc(N)n1 [Cefditoren pivoxil]
a: 83.9

q: Fill in viability at 10 µM for record Nc1nc(NC2CC2)c2ncn([C@H]3C=C[C@@H](CO)C3)c2n1 [Abacavir sulfate]
a: 76

q: Fill in viability at 10 µM for record O=C(O)c1cccnc1Nc1cccc(C(F)(F)F)c1 [Niflumic acid]
a: 111

q: Fill in viability at 10 µM for record CCCCCCCCCCCCCCCC[N+](C)(C)CCN(Cc1ccc(OC)cc1)c1ncccn1 [Thonzonium Bromide]
a: 46.2

q: Fill in viability at 10 µM for record CC(C)(C)c1nc(-c2cccc(NS(=O)(=O)c3c(F)cccc3F)c2F)c(-c2ccnc(N)n2)s1 [Dabrafenib (GSK2118436), Dabrafenib]
a: 100

q: Fill in viability at 10 µM for record Cc1ccnc2c1NC(=O)c1cccnc1N2C1CC1 [Nevirapine (Viramune), Nevirapine]
a: 84.1

q: Fill in viability at 10 µM for record CC(C)(C)CC(C)(C)c1ccc(O)c(Cc2ccc(Cl)cc2Cl)c1 [Clofoctol]
a: 63.4

q: Fill in viability at 10 µM for record CC(=O)O[C@]1(C(C)=O)CC[C@H]2[C@@H]3C[C@H](C)C4=CC(=O)CC[C@]4(C)[C@H]3CC[C@@]21C [Medroxyprogesterone acetate]
a: 82

q: Fill in viability at 10 µM for record CC(N)C12CC3CC(CC(C3)C1)C2 (centres unmarked) [Rimantadine (Flumadine), Rimantadine]
a: 91.3
